B1: 6YSE (parent)
chain: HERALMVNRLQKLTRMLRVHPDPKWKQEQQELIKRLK

# Variants of: B1
# Test name: folding stability dG (cDNA display proteolysis); higher = more stable
# Condition label: PBS, room temperature
Kindly state folding stability dG for each of the entries shown.
Report the figure in kcal/mol without appending any unit label.

Lookup result for A4F ; measured folding stability dG: 1.12

Lookup result for H20N ; measured folding stability dG: 1.26

Lookup result for I33Y ; measured folding stability dG: 0.751

Lookup result for A4G ; measured folding stability dG: 0.783

Lookup result for H1L ; measured folding stability dG: 1.36

Lookup result for L5A ; measured folding stability dG: 1.6

Lookup result for M6L ; measured folding stability dG: 1.46

Lookup result for H1A ; measured folding stability dG: 1.55

Lookup result for K24V ; measured folding stability dG: 1.31

Lookup result for A4P ; measured folding stability dG: 0.222

Lookup result for L5V ; measured folding stability dG: 1.29

Lookup result for N8H ; measured folding stability dG: 1.47

Lookup result for K34I ; measured folding stability dG: 1.31

Lookup result for R18G ; measured folding stability dG: 0.577

Lookup result for K26S ; measured folding stability dG: 0.461

Lookup result for Q29M ; measured folding stability dG: 1.72

Lookup result for K34T ; measured folding stability dG: 1.27

Lookup result for L10W ; measured folding stability dG: -0.405

Lookup result for H20G ; measured folding stability dG: -0.186

Lookup result for D22A ; measured folding stability dG: 0.299

Lookup result for Q30S ; measured folding stability dG: 1.11

Lookup result for D22M ; measured folding stability dG: 0.675

Lookup result for V7A ; measured folding stability dG: 0.946

Lookup result for L10M ; measured folding stability dG: -0.327

Lookup result for E28N ; measured folding stability dG: -0.895

Lookup result for K12V ; measured folding stability dG: 1.43

Lookup result for R9L ; measured folding stability dG: 0.938

Lookup result for L32F ; measured folding stability dG: -0.201

Lookup result for L5Q ; measured folding stability dG: 1.61

Lookup result for A4L ; measured folding stability dG: 1.49

Lookup result for N8Q ; measured folding stability dG: 2.12

Lookup result for W25R ; measured folding stability dG: 0.719

Lookup result for Q29A ; measured folding stability dG: 1.48

Lookup result for R3L ; measured folding stability dG: 1.61

Lookup result for K26E ; measured folding stability dG: 1.14

Lookup result for K26N ; measured folding stability dG: 0.211
